Assay: In vivo pharmacokinetics after oral administration
Parameters: species or system Sprague-Dawley rats
Conditions: male, Sprague-Dawley, rat, plasma, rats, drug dose 2.5 mg, water suspension
Description: Twelve male Sprague-Dawley rats (SD rats, 180–220 g body weight) were randomly divided into three groups (n = 4): NMP group, NMP/PEIs@TA-CMS group and NMP/MCM41 group. Prior to the experiment, animals were fasted overnight with free access to water. The animals were orally administered the water suspensions of NMP, NMP/PEIs@TA-CMS and NMP/MCM4 with a drug dose of 2.5 mg. […]
reported-metric: AUC(0-inf) (ng·h/mL)

{"compound": "COCCOC(=O)C1=C(C)NC(C)=C(C(=O)OC(C)C)C1c1cccc([N+](=O)[O-])c1 (stereo not shown) [NMP, nimodipine]", "output-unit": "ng·h/mL", "result": 1190}
